Biological target: T1, Tat-SF1 (residues 1-360) (human, UniProt O43719 1-360)
T1 construct: lacks the divergent acidic C-terminal expansion; Expressed as a GST fusion from a pGEX-6p variant with a TEV cleavage site for the GST tag; also called recombinant Tat-SF1
T1 sequence (looked up): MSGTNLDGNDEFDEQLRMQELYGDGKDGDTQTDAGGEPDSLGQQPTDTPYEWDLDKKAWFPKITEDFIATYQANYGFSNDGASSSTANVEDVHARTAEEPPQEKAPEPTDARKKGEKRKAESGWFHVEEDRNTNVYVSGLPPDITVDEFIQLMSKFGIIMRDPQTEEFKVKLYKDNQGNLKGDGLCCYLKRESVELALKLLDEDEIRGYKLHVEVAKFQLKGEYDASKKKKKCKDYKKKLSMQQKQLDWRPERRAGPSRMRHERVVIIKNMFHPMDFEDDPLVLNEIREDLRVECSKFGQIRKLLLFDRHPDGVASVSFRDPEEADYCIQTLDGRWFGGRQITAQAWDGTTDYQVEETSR
Experiment: ITC; apparent; Cus2 or Tat-SF1 proteins titrated with Hsh155 ULM peptide (95-109); 50 mM NaCl, 25 mM HEPES pH 7.4, 0.2 mM TCEP; VP-ITC; three replicates
Conditions: both partners purified
observedProperty: Kd

The reported Kd of the binder RKRKSRWDVKGYEPP (peptide, UniProt P49955 95-109, looked up, source: synthetic peptide, bought: Biomatik Corp. (98% purity)) [Hsh155 ULM peptide (residues 95-109)] was 229 nM
